Molecular target: human Claudin18.2 (human)
Assay: cell-based or functional assay
Observed property: ADCC % Relative activity (%)

chimeric 246B5F2 (antibody, human IgG1, kappa, V domains shown, chimeric, human IgG1/kappa constant regions; also called 246B5F2-Chimeric) VH: EVMLVESGGGLMKPGGSLKLSCAASEFTFSNYAMSWVRQTPEKRLEWVATISSGRSSTYYPDSVKGRFTISRDNAKNTLYLQMSSLRSEDTAMYYCAGLGRGNAMEYWGQGTSVTVSS VL: DIVMTQSPSSLTVTAGEKVTLSCKSSQSLLNSGNQKNYLTWYQQKPGQPPKLLIYWASTRESGVPDRFTGSGSGTDFILTINSVQAEDLAVYYCQNAYSYPFTFGSGTKLEIKR :: 157
chimeric 412B6E4 (antibody, human IgG1, kappa, V domains shown, chimeric, human IgG1/kappa constant regions; also called 412B6E4-Chimeric) VH: DVQLVESGGGLVQPGGSRKLSCAASGFTFSSFGVHWVRQAPEKGLEWVAYISSGSSTIYYAHSVKGRFTISRDNPKNTLFLQMTSLGSEDTATYYCARFYYGNSFAYWGQGTLVTVSA VL: DIVMTQSPSSLTVTAGEKVTMSCKSSQSLLNSGNQKNYLTWYQQKPGQPPKMLIYWASTRESGVPDRFTGSGSGTDFTLTISSVQAEDLAVYYCQNAYTYPLTFGAGTRLELKR :: 535
chimeric 393C2C5 (antibody, human IgG1, kappa, V domains shown, chimeric, human IgG1/kappa constant regions; also called 393C2C5A) VH: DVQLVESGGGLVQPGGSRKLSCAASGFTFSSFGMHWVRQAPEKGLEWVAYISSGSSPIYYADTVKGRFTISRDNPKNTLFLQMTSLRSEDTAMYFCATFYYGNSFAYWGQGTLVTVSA VL: DIVMTQSPSSLTVTAGEKVTMSCKSSQTLLNSGNQKNYLTWYQQKSGQPPKLLIYWASTRESGVPDRFTGSGSGTDFTLTISSVQAEDLAVYYCQNAYSYPVTFGSGTKVELKR :: 318
chimeric 232C5E3 (antibody, human IgG1, kappa, V domains shown, chimeric, human IgG1/kappa constant regions; also called 232C5E3-Chimeric) VH: QAYLQQSGAELVRSGASVKMSCKASGYTFTSHNIHWIKQTPGKGLEWIGYIYPGNGGTNYNQKFKAKATLTADTSSSTAYMQISSLTSEDSAVYFCARDYYGNSFAYWGQGTLVTVSA VL: DIMMTQSPSSLTETAGEKVSMSCKSSQSLLNSGNQKNYLTWYQQKPGQPPKLLIYWASTRESGVPDRFSGSGSGTDFTLTISSVQAEDLAVYYCQNGYRFPFTFGAGTKLELKR :: 452
chimeric 252F1B10 (antibody, human IgG1, kappa, V domains shown, chimeric, human IgG1/kappa constant regions) VH: QAYLQQSGAELVRSGASVKMSCKASGYTFTSHNMHWVKQTPGQGLEWIGYIYPGNGGTNYNQKFKGKATLTADTSSSTAYMQINSLTSEDSAVYFCTRDYYGNSFAYWGQGTLVTVSA VL: DIVMTQSPSSLTEKAGERVSMSCKSSQSLFNSGNQKNYLTWYQQKPGQPPKLLIYWASTRESGVPDRFTGSGSGTDFTLTISSVQAEDLAVYYCQNDYRYPFTFGAGTKLELKR :: 85.9
chimeric 207F8G5 (antibody, human IgG1, kappa, V domains shown, chimeric, human IgG1/kappa constant regions; also called 207F8G5-Chimeric) VH: QAYLQQSGAELVRSGASVKMSCKASGFTFTSYNIHWVKQTPGQGLEWIGYISPGNGGSNYNLKFKDKATLTSATSSSTAYMQISSLTSEDSAVYFCATGRGFAYWGQGTLVTVSA VL: DIVMTQSPSSLTVTPGEKVTMSCKSSQSLFNSGNQKNYLIWYQQKPGQPPKLLIYRASTRDSGVPDRFTGSGSGTDFTLTISNVQAEDLAIYYCQNDYSYPLTFGAGTKLELKR :: 114
chimeric 252E7C9 (antibody, human IgG1, kappa, V domains shown, chimeric, human IgG1/kappa constant regions) VH: QTYLQQSGAELVRSGASVKMSCRTSGYSFTSHNMHWVKQTPGQGLEWIGYIYPGNGGSYYNQKFKGKAILTADTSSSTAYMQISSLTSEDSAVYFCTRDYYGNSFVYWGQGTLVTVSA VL: DVVMTQSPSSLTEKTGEKVSMSCKSSQSLLNSGNQKNYLTWYQQKPGQPPKLLIYWASTRESGVPDRFTGSGSGTDFTLTISSLQTEDLAIYYCQNNFRYPFTFGAGTKLELKR :: 98.7
chimeric 222B6G5 (antibody, human IgG1, kappa, V domains shown, chimeric, human IgG1/kappa constant regions) VH: QTYLQQSGAELVRSGASVKMSCKASGYTFTSYNIHWVKQTPGQGLEWIGYISPGNGGTYYNLKFKDKATLTTATSSSTAYMQISSLTSEDSAVYFCATGRGFAYWGQGTLVTVSA VL: DIVMTQSPSSLTVTPGEKVTMSCKSSQSLFNSGNQKNYLIWYQQKPGQPPKLLIYRASTRDSGVPDRFTGSGSGTDFTLTISNVQAEDLAVYYCQNDYSYPLTFGAGTKLELKR :: 131
chimeric 253E4F7 (antibody, human IgG1, kappa, V domains shown, chimeric, human IgG1/kappa constant regions) VH: EIQLQQSGPELMKPGASVKMSCKASGYSFTSYYIHWVKQSHGKSLEWIGYIDPFNGGTRYNQKFEGKATLTVDKSSTTAYMHLSSLTSEDSTVYYCASLRFLAYWGQGTLVTVSA VL: DIVMTQSPSSLTVTAGEKVTMTCKSSQSLLNSGNQKNYLTWYQQKPGQPPKVLISRASTRQSGVPDRFTGSGSGTDFTLTISSVQAEDLAVYYCQNDYSYPLTFGAGTKLELKR :: 138
chimeric 250F4G4 (antibody, human IgG1, kappa, V domains shown, chimeric, human IgG1/kappa constant regions) VH: QAYLQQSGAELVRSGASVKMSCKASGYTFTSHNMHWVKQTPGQGLEWIGYIYPGNGRTNYNQKFKGKATLTADTSSSTAYMQISSLTSEDSAVYFCTRDYYGNSFAYWGQGTLVTVSA VL: DIVMTQSPSSLTEKVGERVSMSCKSSQSLFNSGNQKNYLTWYQQKPGQPPKLLIYWASTRESGVPDRFTGSGSGTDFTLTISSVQAEDLAVYYCQNDYWYPFTFGAGTKLELKR :: 109
